Test system: CD2F1 mice, L1210 leukemia ip, survival T/C
Test: NCI In Vivo Anticancer Drug Screen. Data for tumor model L1210 Leukemia (intraperitoneal) in CD2F1 (CDF1) mice
Conditions: endpoint: mean survival time; dose: 400.0 mg/kg/injection; schedule: Q04DX002 (ip); vehicle: saline with Tween-80; higher = longer survival
Experimental: The antitumor activity of compounds was measured in mice bearing transplantable tumors. Survival or tumor size were measured and the results are expressed as the measurement made in the treated group (T) divided by the measurement made in the vehicle treated control group (C). The tumor model used in this assay is L1210 Leukemia (intraperitoneal) in CD2F1 (CDF1) mice
Inconclusive results and toxic doses are left out.
readout.label: T/C

>>> measured_value("O=C1C=C(O)C2C(=O)C1C1/C(=[N+](/[O-])O)C=C([N+](=O)[O-])C2C1[N+](=O)[O-] (centres undefined)")
"98 % of control"
>>> measured_value("S=C1NC=CC(S)N1 (centres undefined)")
"98 % of control"
>>> measured_value("CCCCCCCCCCCCCCCCCC(=O)Nc1ccn(C2OC(CO)C(O)C2O)c(=O)n1 (centres undefined)")
"110 % of control"
>>> measured_value("O=c1[nH]cnc2snc(Cl)c12")
"87 % of control"
>>> measured_value("CCOC(=O)c1ccc(NC(=O)Nc2cc(Cl)c(Cl)cc2C)cc1")
"88 % of control"
>>> measured_value("O=C(NN(C(=O)c1ccccc1)c1ccccc1)c1ccccc1")
"103 % of control"
>>> measured_value("O=C(O)C(C(=O)O)C1C=CCC1 (centres undefined)")
"87 % of control"
>>> measured_value("[CH3][Sb]([CH3])([CH3])([O]C(=O)C(Cl)(Cl)Cl)[O]C(=O)C(Cl)(Cl)Cl")
"103 % of control"
>>> measured_value("CCOC(=O)Nc1cccc(F)c1C")
"94 % of control"
>>> measured_value("CC(C)=CC(O)CC(O)(C(F)(F)F)C(F)(F)F (centres undefined)")
"90 % of control"
>>> measured_value("Cc1cc(C)nc(NC(=S)N/N=C/c2ccccn2)n1")
"106 % of control"
>>> measured_value("CCC(CCc1ccc(OC)c(OC)c1)C(=O)O (centres undefined)")
"98 % of control"
>>> measured_value("O=C(O)Cc1cc(O)c(CC(=O)O)cc1O")
"91 % of control"
>>> measured_value("CCCCCCCC/C=C\\CCCCCCCC(=O)OCCCCC")
"106 % of control"

----------
system: CD2F1 mice, L1210 leukemia ip, survival T/C; assay: NCI In Vivo Anticancer Drug Screen. Data for tumor model L1210 Leukemia (intraperitoneal) in CD2F1 (CDF1) mice; conditions: endpoint: mean survival time; dose: 200.0 mg/kg/injection; schedule: Q04DX003 (ip); vehicle: saline with Tween-80; higher = longer survival
Inconclusive results and toxic doses are left out.
Catalogue of T/C values
readout.label: T/C

>>> measured_value("CCOC(=O)c1[nH]cnc1/N=N/N(C)CCO")
"111 % of control"
>>> measured_value("CNC(=O)c1ccccc1C(c1ccccc1)C1(O)CCCCC1 (stereo not drawn)")
"88 % of control"
>>> measured_value("Nc1nc(CCCCc2ccccc2)cc(=O)[nH]1")
"89 % of control"
>>> measured_value("Cn1c2ccccc2c(=O)c2ccc(Cl)cc21")
"96 % of control"
>>> measured_value("O=C(C1=CN(CCCO)CCC1)c1cc2ccccc2n1S(=O)(=O)c1ccccc1")
"90 % of control"
>>> measured_value("Nc1cnc2nc(N)[nH]c(=O)c2c1")
"93 % of control"
>>> measured_value("O=C(COc1ccc(Cl)c(Cl)c1)NCc1ccc(Cl)cc1")
"95 % of control"
>>> measured_value("CCCCNC(=O)CCC(=O)O")
"99 % of control"
>>> measured_value("CCCC(C(=O)O)C(CCC)C(=O)O (stereo not drawn)")
"104 % of control"
>>> measured_value("CCCCCCCCCCCCCCCCCCCCCC(=O)OC")
"90 % of control"
>>> measured_value("COC(=O)c1cc(C)n(-c2ccc(C)cc2)c1C")
"96 % of control"
>>> measured_value("CC(C)(C)OC(=O)NC(Cc1ccc(OCc2ccccc2)cc1)C(=O)O (stereo not drawn)")
"101 % of control"
>>> measured_value("CCCCCn1c(CN2CCCCC2)nc2c1-c1ccccc1C(=O)C2=O")
"103 % of control"
>>> measured_value("CC(C)C(=O)/C=C/c1ccccc1")
"103 % of control"
>>> measured_value("CCc1c(Br)c(CC)c(CC)c(CC)c1CC")
"98 % of control"
>>> measured_value("COC(=O)c1cccc(COc2ccc([N+](=O)[O-])cc2Cl)c1")
"100 % of control"
>>> measured_value("COc1cc(C(=O)N(C(C)C)C2CCCCC2)cc(OC)c1OC")
"96 % of control"
>>> measured_value("CCOC(=O)COC(CN)C(Cl)(Cl)Cl (stereo not drawn)")
"97 % of control"
>>> measured_value("CCC1(C)C(C#N)C(=O)NC(=O)C1C#N (stereo not drawn)")
"100 % of control"
>>> measured_value("CCCCCCCCCCCCCCCC(=O)N1CCC(N2CCCCC2)CC1")
"88 % of control"
>>> measured_value("N#C/C(=C\\c1cccc2ccccc12)c1ccccc1")
"98 % of control"
>>> measured_value("O=C(NS(=O)(=O)c1ccc(Cl)cc1)OCCCl")
"97 % of control"
>>> measured_value("BrC=C=C1CCCCC1")
"93 % of control"

----------
tested on: CD2F1 mice, L1210 leukemia ip, survival T/C; assay: NCI In Vivo Anticancer Drug Screen. Data for tumor model L1210 Leukemia (intraperitoneal) in CD2F1 (CDF1) mice; settings: endpoint: mean survival time; dose: 400.0 mg/kg/injection; schedule: Q01DX001 (ip); vehicle: saline with Tween-80; higher = longer survival
Toxic doses and inconclusive results are not listed.
List of T/C values.
readout.label: T/C

>>> measured_value("Cc1cc(Br)cnc1Cl")
"101 % of control"
>>> measured_value("CC1=CC(O)(c2ccccc2)C(C)=CC1=O (stereo unspecified)")
"93 % of control"
>>> measured_value("CCOc1ccc(Nc2cc(=O)[nH]c(=O)[nH]2)cc1")
"95 % of control"
>>> measured_value("CP(=O)(c1ccccc1)c1ccccc1")
"98 % of control"
>>> measured_value("COC(=O)C(Br)c1ccccc1 (stereo unspecified)")
"97 % of control"
>>> measured_value("O=c1[nH]c(Cc2ccccc2)c(N=Nc2ccccc2)c(=O)[nH]1")
"89 % of control"
>>> measured_value("CCCCCCCCCCCCCC(CCCCCCCCCC)CCCCCCCCCC")
"104 % of control"
>>> measured_value("O=[N+]([O-])c1cccc(Cc2nc3ccccc3nc2-c2ccccc2)c1")
"91 % of control"
>>> measured_value("CCC1(C)CCC2=C(CCC3C(C)(C(=O)O)CCCC23C)C1 (stereo unspecified)")
"96 % of control"
>>> measured_value("Sc1ccc(Cl)cc1")
"102 % of control"
>>> measured_value("O=C1CCC([N+](=O)[O-])C(c2cccc3ccccc23)N1 (stereo unspecified)")
"97 % of control"

----------
tested on: CD2F1 mice, L1210 leukemia ip, survival T/C; test: NCI In Vivo Anticancer Drug Screen. Data for tumor model L1210 Leukemia (intraperitoneal) in CD2F1 (CDF1) mice; conditions: endpoint: mean survival time; dose: 50.0 mg/kg/injection; schedule: Q01DX009 (ip); vehicle: saline with Tween-80; higher = longer survival
Toxic doses and inconclusive results are not listed.
Each entry below lists one item and its recorded T/C value.
readout.label: T/C

>>> measured_value("C=CCNC(=S)NCCCCCCCCCCCCCCCCCC")
"104 % of control"
>>> measured_value("Cc1ccc2nc(-c3ccc([N+](=O)[O-])cc3)oc(=O)c2c1")
"93 % of control"
>>> measured_value("CN(C)C(=N)N(C)C")
"95 % of control"
>>> measured_value("COc1cc(Cl)ccc1NC(=O)OCCOc1ccc(Cl)cc1")
"91 % of control"
>>> measured_value("c1ccc(P(c2ccccc2)c2ccccc2)cc1")
"96 % of control"
>>> measured_value("COc1cc(-c2[o+]c3cc(O)cc(O)c3cc2OC2OC(CO)C(O)C(O)C2O)cc(OC)c1O (configuration not stated)")
"96 % of control"
>>> measured_value("Cn1cnc([N+](=O)[O-])c1SCC(=O)O")
"95 % of control"

Values compiled from PubChem BioAssay AID256.
